# method_summary: Primary qHTS for inhibitors of nuclear receptor binding SET domain protein 2 (NSD2) in an isogenic RCH-ACV NSD2 p.E1099K mutant (9B) (AID 1645876); also: nearly all actives have a fitted effect of over 70% in size
# test_parameters: RCH-ACV (leukaemia line) NSD2 E1099K (9B) viability, CellTiter-Glo, 72 h; series mostly up to 44.9 µM
Records with an inconclusive call do not appear. The source made the active and inactive calls. Calls follow the shape of the dose curve; as a rule, active = well fitted inhibition curve with a large enough effect; inconclusive = small, poorly fitted or top-dose-only effect; inactive = flat fitted curve, though single readings scatter.
Outcome codes: active, inactive

compound | category
CNC(=O)[C@H](Cc1c[nH]c2ccccc12)NC(=O)[C@@H](CC(=O)NO)CC(C)C | inactive
CO[C@H]1C[C@@H]2CC[C@@H](C)[C@@](O)(O2)C(=O)C(=O)N2CCCC[C@H]2C(=O)O[C@H]([C@H](C)C[C@@H]2CC[C@@H](OC(=O)C(C)(CO)CO)[C@H](OC)C2)CC(=O)[C@H](C)/C=C(\C)[C@@H](O)[C@@H](OC)C(=O)[C@H](C)C[C@H](C)/C=C/C=C/C=C/1C | active
NC[C@H]1O[C@H](O[C@H]2[C@H](O)[C@@H](O[C@H]3O[C@H](CO)[C@@H](O)[C@H](N)[C@H]3O)[C@H](N)C[C@@H]2N)[C@H](N)C[C@@H]1O | inactive
C=C1[C@H](CO)[C@@H](O)C[C@@H]1n1cnc2c(=O)[nH]c(N)nc21 | inactive
CN[C@@H]1[C@@H](O)[C@@H](O[C@@H]2[C@@H](O)[C@H](O[C@H]3O[C@H](CN)[C@@H](O)[C@H](O)[C@H]3O)[C@@H](N)C[C@H]2NC(=O)C(O)CN)OC[C@]1(C)O (some centres not stated) | inactive
CC(=O)Oc1cccc2c1C(=O)c1c(OC(C)=O)cc(C(=O)O)cc1C2=O | inactive
CC[C@H](CC[C@@H](C)[C@H]1CC[C@H]2[C@@H]3CC=C4C[C@@H](O)CC[C@]4(C)[C@H]3CC[C@]12C)C(C)C | inactive
